system: L. infantum strain MCAN/ES/92/BCN722 promastigote forms; test: Activity against promastigotes of L. infantum (acid phosphatase); format: cell-based, Leishmania infantum; conditions: promastigote form; mean ± SD of duplicate experiments performed at least twice
Exercise: for every item that follows, state its recorded pIC50.
Give bare numbers, as −log10 of the molar value.

Before answering, review these 5 worked examples.
[
  {
    "COMPOUND": "NCc1ccc(-c2nc3ccc(Cl)cc3c3c2CCCCN3)cc1 [Compound 32]",
    "pIC50": 5.32
  },
  {
    "COMPOUND": "N#Cc1ccc(-c2nc3cc(Cl)ccc3cc2CCCN)cc1 [Compound 35]",
    "pIC50": 4.79
  },
  {
    "COMPOUND": "O.O.O.O=C([O-])C(O)C(O)C(=O)[O-].O=C([O-])C(O)C(O)C(=O)[O-].[K+].[K+].[Sb].[Sb] (stereo not drawn) [Sb (III), reference compound]",
    "pIC50": 4.61
  },
  {
    "COMPOUND": "NCc1ccc(-c2nc3ccc(Cl)cc3c3c2CCCN3Cc2ccccc2)cc1 [Compound 3]",
    "pIC50": 4.51
  },
  {
    "COMPOUND": "Clc1ccc2nc(-c3cccs3)c(CCCN3CCCC3)cc2c1 [Compound 49]",
    "pIC50": 4.88
  }
]

Form: item CCN(CC)CCCc1cc2cc(Cl)ccc2nc1-c1cccs1 [Compound 50] ; test system L. infantum strain MCAN/ES/92/BCN722 promastigote forms; pIC50: 4.87

meta.source: paper PMC4638191
